- subject.of.test: HLA-B*40:01
- test.method.notes: IEDB peptide-MHC binding, purified MHC/direct/fluorescence; filed as Kd, often an IC50 or EC50 that approximates it; bounds were set here for any values at or beyond the usual limits of such assays
- condition.summary: source organism: Vibrio vulnificus

[
  {
    "input.sequence": "QKDINTPGY",
    "Kd": "≥ 20 µM"
  }
]

====

- subject.of.test: HLA-A*02:01
- test.method.notes: IEDB peptide-MHC binding, purified MHC/competitive/fluorescence; filed as Kd, often an IC50 or EC50 that approximates it; bounds were set here for any values at or beyond the usual limits of such assays
- condition.summary: source organism: Bacillus anthracis str. A2012
readout: Kd (nM)

[
  {
    "input.sequence": "FLIYFRSPL",
    "subject.of.test": "HLA-A*02:01",
    "obs.value": 10.6
  }
]

====

- subject.of.test: HLA-A*26:02
- test.method.notes: IEDB peptide-MHC binding, purified MHC/direct/fluorescence; filed as Kd, often an IC50 or EC50 that approximates it; bounds were set here for any values at or beyond the usual limits of such assays
- condition.summary: source organism: Escherichia coli O157:H7 str. EC869
pKd: −log10 of the molar value.

[
  {
    "input.sequence": "YQAFRTKVH",
    "pKd": "≤ 4.70"
  }
]

====

- subject.of.test: HLA-A*11:01
- test.method.notes: IEDB peptide-MHC binding, purified MHC/competitive/fluorescence; filed as Kd, often an IC50 or EC50 that approximates it; bounds were set here for any values at or beyond the usual limits of such assays
- condition.summary: source organism: Vaccinia virus Tian Tan
readout: Kd

[
  {
    "input.sequence": "WQFAIHYSF",
    "obs.value": "≥ 20 µM"
  }
]

====

- subject.of.test: HLA-A*31:01
- test.method.notes: IEDB peptide-MHC binding, purified MHC/direct/fluorescence; filed as Kd, often an IC50 or EC50 that approximates it; bounds were set here for any values at or beyond the usual limits of such assays
- condition.summary: source organism: Camelpox virus M-96
readout: Kd

[
  {
    "input.sequence": "MTRVTNNVY",
    "subject.of.test": "HLA-A*31:01",
    "obs.value": "≥ 20 µM"
  },
  {
    "input.sequence": "FYLFTFTIY",
    "subject.of.test": "HLA-A*31:01",
    "obs.value": "≥ 20 µM"
  }
]

====

- subject.of.test: HLA-B*14:02
- test.method.notes: IEDB peptide-MHC binding, purified MHC/competitive/fluorescence; filed as Kd, often an IC50 or EC50 that approximates it; bounds were set here for any values at or beyond the usual limits of such assays
- condition.summary: source organism: Giardia lamblia ATCC 50803

[
  {
    "input.sequence": "MTFPLHFRS",
    "subject.of.test": "HLA-B*14:02",
    "Kd": "≥ 5 µM"
  }
]

====

- subject.of.test: HLA-A*03:01
- test.method.notes: IEDB peptide-MHC binding, purified MHC/competitive/radioactivity; filed as Kd, often an IC50 or EC50 that approximates it; bounds were set here for any values at or beyond the usual limits of such assays
- condition.summary: source organism: Dengue virus 2 Jamaica/1409/1983
Entries and their Kd values follow.

[
  {
    "input.sequence": "MLRTRVGTK",
    "Kd (nM)": 25.6
  },
  {
    "input.sequence": "STYGWNLVR",
    "Kd (nM)": 63.5
  },
  {
    "input.sequence": "RLRMDKLQLK",
    "Kd (nM)": 7.91
  }
]
